- ASSAY INFO: in vitro
- ASSAY SETUP: human, hela cells, % viability
Sorting guide: entries reporting viability at 28.5 h, 10 µM beneath 90% go in the class 1 pile, the rest go in the class 0 pile.

INSERT INTO assay_data (molecule, assigned_label) VALUES
  ('CCCc1[nH]nc(O)c1CCc1ccc(OC)cc1OC', 'class 0'),
  ('COc1ccc(Cl)cc1S(=O)(=O)N1CCC(C(=O)O)CC1', 'class 1');

Quick check: viability at 28.5 h, 10 µM of CC(=O)NC[C@H]1CN(c2ccc(-c3nnc([C@@H](C)N)s3)c(F)c2)C(=O)O1 under 90%?
class 0

Quick check: viability at 28.5 h, 10 µM of CCNc1ncc(C(=O)N2CCOC(c3ccc(F)c(C)c3)C2)s1 (stereo not shown) under 90%?
class 0

Quick check: viability at 28.5 h, 10 µM of COCCOc1ccc(C(=O)N2CCN(c3ccccc3)CC2)cc1 under 90%?
class 0

Quick check: viability at 28.5 h, 10 µM of c1cnc(OC2CCN(Cc3ccc4c(c3)OCO4)CC2)c(OCCN2CCOCC2)n1 [CBK082925T] under 90%?
class 0

Quick check: viability at 28.5 h, 10 µM of COC(=O)c1ccccc1OC[C@@H]1CN(C(=O)C(C)(C)N)C[C@H]1c1cc2ccccc2o1 [CBK022525T] under 90%?
class 0

Quick check: viability at 28.5 h, 10 µM of CC(C)CN1CCCN(S(=O)(=O)c2ccc(C(F)(F)F)cc2Cl)CC1 under 90%?
class 1

Quick check: viability at 28.5 h, 10 µM of NS(=O)(=O)c1ccc(NC(=S)NC(=O)c2cccc3c(Cl)cccc23)cc1 under 90%?
class 0

Quick check: viability at 28.5 h, 10 µM of COc1ccccc1CN(CCCN)C(=O)NC(C)c1ccccc1 (stereo not shown) [CBK034667C] under 90%?
class 1

Quick check: viability at 28.5 h, 10 µM of O=C(Cn1cnc(-c2nccs2)n1)N1CCCCCC1 under 90%?
class 0

* * *

- Test system: C. trachomatis L2/434/Bu expressing GFP (CTL2-GFP)
- Construct: L2/434/Bu GFP intracellular growth in HeLa cells
- ASSAY INFO: microbe, parasite or virus in culture
- Design: C. trachomatis total inclusion area by high-content imaging, normalised to DMSO
- ASSAY SETUP: Chlamydia trachomatis, HeLa, 28.5 h; total inclusion area; read-out: % of control remaining
Sorting guide: entries reporting activity at 10 µM beneath 20% go in the Criterion met pile, the rest go in the Criterion not met pile.

INSERT INTO assay_data (compound, assigned_label) VALUES
  ('C[C@@H]1CN(c2ccc(C(F)(F)F)c(OCc3ccccc3)n2)CCN1 [CBK003987A]', 'Criterion met');

Quick check: activity at 10 µM of CCc1ccc(S(=O)(=O)Nc2cc(SCC(=O)O)c(O)c3ccccc23)cc1 under 20%?
Criterion met

Quick check: activity at 10 µM of c1ccc(Oc2cccc(OCCCN3CCCCC3)c2)cc1 under 20%?
Criterion not met

Quick check: activity at 10 µM of CN(C)[C@H]1CCC[C@@H]1C(=O)Nc1ccc(Cl)c(Cl)c1 under 20%?
Criterion not met

Quick check: activity at 10 µM of CCn1c2c(c3cc(S(=O)(=O)c4ccc(C(F)(F)F)cc4)ccc31)CCNCC2 [CBK018453C] under 20%?
Criterion met

Quick check: activity at 10 µM of Cc1noc(NS(=O)(=O)c2ccc(N/C=C\C(=O)c3cccnc3)cc2)c1C under 20%?
Criterion met

Quick check: activity at 10 µM of Cc1cc(C)nc(NS(=O)(=O)c2ccc(Nc3ccc4nonc4c3[N+](=O)[O-])cc2)n1 under 20%?
Criterion not met

Quick check: activity at 10 µM of Cc1ccc(S(=O)(=O)Nc2cc(SCC(=O)O)c(O)c3ccccc23)cc1 under 20%?
Criterion met

Quick check: activity at 10 µM of O=C(N/N=C\c1ccc([N+](=O)[O-])o1)c1nc(-c2ccccc2)cc(-c2ccccc2)n1 under 20%?
Criterion met

Quick check: activity at 10 µM of Cc1ccc(OCC(O)CN2CCN(c3nc(-c4ccccc4)ns3)CC2)c([N+](=O)[O-])c1 (stereo not shown) under 20%?
Criterion not met

* * *

- ASSAY INFO: in vitro
- ASSAY SETUP: human, hela cells, % viability
ASSAY ENDPOINT: viability at 28.5 h, 10 µM
Quick note: unit goes after the number.

So what does the record say about viability at 28.5 h, 10 µM for CS(=O)(=O)c1ccc(C(=O)Nc2nccs2)cc1 ?
98.3%

So what does the record say about viability at 28.5 h, 10 µM for C=CCNC(=O)N[C@H]1CCN2C(=O)c3ccccc3NC(=O)[C@@H]2C1 ?
102%

So what does the record say about viability at 28.5 h, 10 µM for Cc1cc(CN(C)Cc2cnn(-c3ccc(Cl)cc3)c2)n[nH]1 ?
99.3%

So what does the record say about viability at 28.5 h, 10 µM for CN1CCC(N2CCN(C(=O)NCc3cccnc3)CC2)CC1 ?
89.2%

So what does the record say about viability at 28.5 h, 10 µM for CCN1CCCC1CNC(=O)c1cccc(Cl)c1 (stereo not drawn) ?
84.3%

So what does the record say about viability at 28.5 h, 10 µM for COc1ccc(S(=O)(=O)N(C)CC(=O)Nc2ccc(S(N)(=O)=O)cc2)cc1C ?
93.7%

* * *

Overview of reported viability at 28.5 h, 10 µM across a group of molecules:
- ASSAY INFO: in vitro
- ASSAY SETUP: human, hela cells, % viability
Could you give me the number in %? Just the number is fine.

Here is how some molecules turned out for viability at 28.5 h, 10 µM.
INSERT INTO measurements (molecule, assay_endpoint, unit_tag, experimental_value) VALUES
  ('O=C(CSc1nnc(COc2ccc(Br)cc2)o1)OC1CCCCC1', 'viability at 28.5 h, 10 µM', '%', 88.8),
  ('COc1ccc(N2CCN(c3cc(C)nc4cc(-c5nccn5C)nn34)CC2)cc1', 'viability at 28.5 h, 10 µM', '%', 87.8),
  ('CC(O)(CC(=O)O)C12CC3CC(CC(C3)C1)C2 (stereo not shown)', 'viability at 28.5 h, 10 µM', '%', 114),
  ('CCn1nc(C)c(C(C)NC(=O)c2c3c(nn2CC)CCCC3)c1C (stereo not shown)', 'viability at 28.5 h, 10 µM', '%', 85);

So what does the record say about viability at 28.5 h, 10 µM for CCOc1ccc(CN2CCNC(=O)C2CC(=O)O)cc1 (stereo not shown) ?
107

So what does the record say about viability at 28.5 h, 10 µM for Cc1ccccc1C1(O)CCN(C(=O)C(c2cccs2)c2cccs2)CC1 ?
106

So what does the record say about viability at 28.5 h, 10 µM for Cn1cncc1C(=O)N1Cc2ccccc2C1 ?
106

* * *

- ASSAY INFO: in vitro
- ASSAY SETUP: human, hela cells, % viability
ASSAY ENDPOINT: viability at 28.5 h, 10 µM (%)
Could you give me the number in %? Just the number is fine.

Here is how some compounds turned out for viability at 28.5 h, 10 µM.
INSERT INTO assay_data (compound, unit_tag, experimental_value) VALUES
  ('COc1ccc(-c2cn3ccnc3c(N3CCCCC3CO)n2)cc1OC (stereo not shown)', '%', 107),
  ('CC(Cn1cccn1)NCC(=O)NC1(C#N)CCCCC1 (stereo not shown)', '%', 102),
  ('Cc1ccccc1NC(=O)N1CCC2(CC1)NCCc1c2[nH]c2ccc(O)cc12', '%', 91);

So what does the record say about viability at 28.5 h, 10 µM for CCC(c1ccc(F)cc1F)N1CCN(Cc2nc(C)no2)CC1 (stereo not shown) ?
103

* * *

- ASSAY INFO: in vitro
- ASSAY SETUP: human, hela cells, % viability
Sorting guide: entries reporting viability at 28.5 h, 10 µM beneath 90% go in the condition met pile, the rest go in the condition not met pile.

INSERT INTO results (compound, assigned_label) VALUES
  ('CCC(NC(=O)Nc1cc(N2CCOCC2)ccc1Cl)c1cnn(C)c1 (stereo not shown)', 'condition not met'),
  ('COC(=O)n1c(=O)oc2ccc(Cl)cc21', 'condition not met'),
  ('CCCn1nc(C)c(-c2cncn2CC(C)n2nc(C)cc2C)c1C (stereo not shown)', 'condition not met'),
  ('CS(=O)(=O)c1ccc(-c2ccc(C(=O)N3CCN(C(=O)OCc4ccccc4)CC3)cn2)cc1', 'condition not met'),
  ('Cc1ccccc1Nc1nc(N)nc(CN2CCCC(C(F)(F)F)C2)n1 (stereo not shown)', 'condition not met');

Quick check: viability at 28.5 h, 10 µM of COCCNC(=O)C(Cc1ccc(-c2ccc(S(C)(=O)=O)cc2)cc1)C1CCN(C(=O)OC(C)(C)C)CC1 (stereo not shown) under 90%?
condition not met

Quick check: viability at 28.5 h, 10 µM of O=S(=O)(c1ccc2nc(-c3ccccc3)c(-c3ccc(O)cc3)nc2c1)c1ccc2nc(-c3ccccc3)c(-c3ccc(O)cc3)nc2c1 under 90%?
condition not met

Quick check: viability at 28.5 h, 10 µM of Cc1cccc(NC(c2ccc(C)s2)c2ccc3ccc(C)nc3c2O)n1 (stereo not shown) under 90%?
condition not met

Quick check: viability at 28.5 h, 10 µM of CCc1[nH]ncc1C(=O)N1CCN(c2nccc(OC)n2)CC1 under 90%?
condition met

Quick check: viability at 28.5 h, 10 µM of Cc1ccc2c(c1)c(-c1ccccc1)c(-c1ccccc1)n2CC(O)Cn1cnc(-c2ccccc2)c1-c1ccccc1 (stereo not shown) under 90%?
condition met

Quick check: viability at 28.5 h, 10 µM of CN(C)CC(=O)Nc1ccc2n(c1=O)C[C@H]1C[C@@H]2CN(Cc2ccccn2)C1 under 90%?
condition not met

Quick check: viability at 28.5 h, 10 µM of Clc1ccc(COc2nccnc2OC2CCN(CCOc3ccccc3)CC2)cc1Cl [CBK083121T] under 90%?
condition not met

Quick check: viability at 28.5 h, 10 µM of Cc1ccc(CCC(=O)Nc2nc3c(cc2C#N)CCC3)o1 under 90%?
condition met

Quick check: viability at 28.5 h, 10 µM of N#Cc1cccc(S(=O)(=O)Nc2cccc3[nH]ccc23)c1 under 90%?
condition met
